The entries below are paired with their reported flow cytometry fluorescence (name not given).
system: T1, human podocalyxin (human, UniProt O00592 23-558)
T1 construct: also called hPodo; hPodocalyxin
T1 sequence: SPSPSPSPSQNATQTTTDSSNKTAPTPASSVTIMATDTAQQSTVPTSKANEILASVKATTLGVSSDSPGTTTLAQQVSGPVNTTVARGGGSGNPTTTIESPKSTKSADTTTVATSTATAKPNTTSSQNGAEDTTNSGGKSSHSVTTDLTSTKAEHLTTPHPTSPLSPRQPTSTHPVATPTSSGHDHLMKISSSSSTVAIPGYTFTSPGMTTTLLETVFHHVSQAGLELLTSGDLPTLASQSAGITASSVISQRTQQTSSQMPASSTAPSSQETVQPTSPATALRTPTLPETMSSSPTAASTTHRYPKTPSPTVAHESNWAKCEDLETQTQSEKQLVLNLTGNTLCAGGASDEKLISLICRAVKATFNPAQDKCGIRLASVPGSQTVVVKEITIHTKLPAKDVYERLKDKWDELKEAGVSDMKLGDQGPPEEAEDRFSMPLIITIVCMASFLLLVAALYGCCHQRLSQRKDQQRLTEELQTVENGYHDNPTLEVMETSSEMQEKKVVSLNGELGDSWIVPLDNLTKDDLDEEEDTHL
experiment: flow cytometry, supernatant 1:125, MDA-MB-231 cells
The reply should be a number, written without any unit.

binder: Rb/Hu Podo83 (Podo83 rabbit VH and VL, human IgG1 chimera) (antibody, V domains shown, Rabbit variable domains cloned into human IgG1 and human Ig kappa constant region constructs (pTT5/IgG1, pTT5/Igk); also called anti-PODO; Ab-1) VH: QSLAESGGRLVTPGTPLTLTCTASGIDLSSYAMGWVRQAPGKGLEYIGFIYASGSIFYASWAKGRFTISKTSSTTVDLKMTSLTTEDTATYFCARAGYYFGGNYDLNLWGQGTLVTVSS VL: DIVLTQTPASVEVAVGGTVTIKCQASQSISNYLAWYQRKPGQPPRLLIYRASTLASGVSSRFKGSGSGTQFTLTISGVECADAATYYCQQGYVSNNLDNIFGGGTEVVVK
assay-result: 50600

binder: Rabbit Podo 83 (Parental rabbit antibody) (antibody, V domains shown, Rabbit constant regions; also called Rb Podo 83 (Rb Constant Region); rabbit Podo-83 (Ab-1)) VH: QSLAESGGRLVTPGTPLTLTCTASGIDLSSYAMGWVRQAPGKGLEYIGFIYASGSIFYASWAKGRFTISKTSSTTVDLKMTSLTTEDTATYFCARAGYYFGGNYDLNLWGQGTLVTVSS VL: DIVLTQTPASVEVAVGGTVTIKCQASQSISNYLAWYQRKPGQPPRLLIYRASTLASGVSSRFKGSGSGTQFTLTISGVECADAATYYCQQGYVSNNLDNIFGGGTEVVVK
assay-result: 15500

binder: Rb VH, Vk 1:1 (Podo 83 rabbit VH, human CH1-CH3, human Ck, and humanized Vk) (antibody, V domains shown, Human CH1-CH3 and human Ck) VH: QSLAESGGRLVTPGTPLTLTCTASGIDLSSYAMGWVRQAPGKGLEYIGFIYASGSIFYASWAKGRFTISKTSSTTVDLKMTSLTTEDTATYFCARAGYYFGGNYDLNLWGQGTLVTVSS VL: DIQMTQSPSSLSASVGDRVTITCQASQSISNYLAWYQQKPGKVPKLLIYRASTLASGVPSRFSGSGSGTDFTLTISSLQPEDVATYYCQQGYVSNNLDNIFGGGTEVVVK
assay-result: 47700

binder: huPodo 83 2:1 (humanized anti-podocalyxin antibody 83, version 2) (antibody, V domains shown, Cloned into pTT5 plasmids with human IgG heavy chain and human Ig kappa constant regions) VH: EVQLVESGGGLVQPGGSLRLSCAASGIDLSSYAMGWVRQAPGKGLEWVSFIYASGSIFYASWAKGRFTISRDNSNTLYLQMNSLRAEDTAVYYCARAGYYFGGNYDLNLWGQGTLVTVSS VL: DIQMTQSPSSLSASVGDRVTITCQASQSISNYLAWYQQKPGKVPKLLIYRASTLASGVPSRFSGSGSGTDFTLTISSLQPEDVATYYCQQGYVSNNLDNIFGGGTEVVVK
assay-result: 22300

Read the entry huPodo 83 1:1 (humanized anti-podocalyxin antibody 83, version 1) (antibody, V domains shown, Cloned into pTT5 plasmids with human IgG heavy chain and human Ig kappa constant regions) VH: EVQLVESGGGLVQPGGSLRLSCAASGIDLSSYAMGWVRQAPGKGLEWVSFIYASGSIFYASWAKGRFTISRDNSKNTLYLQMNSLRAEDTAVYYCARAGYYFGGNYDLNLWGQGTLVTVSS VL: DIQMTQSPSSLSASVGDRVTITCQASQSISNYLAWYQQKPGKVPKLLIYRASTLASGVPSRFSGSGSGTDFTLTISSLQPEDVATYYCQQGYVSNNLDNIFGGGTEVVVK and write its reported flow cytometry fluorescence (name not given).
39400
